target: hMAO-A (Homo sapiens); construct: purchased Sigma-Aldrich; assay: biochemical; conditions: read-out: Residual Activity at 10 µM (%) hMAO-A
Rule: remaining activity at 10 µM below 50% gives MET, anything at or above gives NOT MET.

Dear colleague, could you confirm whether remaining activity at 10 µM of COc1cc(O)c2c(=O)c(-c3ccc(OC)c(O)c3)coc2c1 [Compound 10, 7,4′-dimethyl-3′-hydroxygenistein] falls below 50%? Thanks.
MET

State whether 50% exceeds remaining activity at 10 µM recorded for COc1ccc(-c2coc3cc(O[C@@H]4O[C@H](CO)[C@@H](O)[C@H](O)[C@H]4O)ccc3c2=O)cc1 .
NOT MET

remaining activity at 10 µM under 50%? Item: COc1ccc2c(c1)O[C@H]1c3ccc(OC)cc3OC[C@@H]21
MET

====

test: Cytotoxicity, CCK-8 cell viability, SH-SY5Y; type: cell-based, human; conditions: human, SH-SY5Y cells, 30 µM
Recorded metric: viability at 24 h, 30 µM (%)
Answer format: numeric, % implied, no suffix.

Which viability at 24 h, 30 µM value belongs to COc1ccc2c(c1)OC1c3ccc(O)cc3OCC21 (stereo not shown) [Compound 8, 3-hydroxy-9-methoxypterocarpan] ?
74

====

Biological target: hMAO-A (Homo sapiens, UniProt P21397)
Construct: purchased Sigma-Aldrich
Sequence (P21397 1-527): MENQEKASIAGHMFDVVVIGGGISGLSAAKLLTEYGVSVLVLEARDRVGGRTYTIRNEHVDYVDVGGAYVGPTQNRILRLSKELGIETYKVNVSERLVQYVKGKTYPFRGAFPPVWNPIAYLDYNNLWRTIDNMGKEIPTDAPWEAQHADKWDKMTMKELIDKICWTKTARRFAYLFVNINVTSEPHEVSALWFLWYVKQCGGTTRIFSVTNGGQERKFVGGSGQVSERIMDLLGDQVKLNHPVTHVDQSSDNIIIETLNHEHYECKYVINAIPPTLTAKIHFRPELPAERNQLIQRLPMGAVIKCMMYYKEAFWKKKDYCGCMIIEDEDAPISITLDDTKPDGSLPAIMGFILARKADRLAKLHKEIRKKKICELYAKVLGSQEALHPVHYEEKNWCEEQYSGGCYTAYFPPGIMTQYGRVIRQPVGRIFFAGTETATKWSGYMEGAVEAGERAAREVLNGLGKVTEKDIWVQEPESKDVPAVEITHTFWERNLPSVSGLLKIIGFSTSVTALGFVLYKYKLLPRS
Assay: biochemical
Details: read-out: Residual Activity at 10 µM (%) hMAO-A
Recorded metric: remaining activity at 10 µM (%)
A number alone suffices; assume %.

Solved cases below.
C[C@@H]1O[C@@H](OC[C@H]2O[C@@H](Oc3c(-c4ccc(O)c(O)c4)oc4cc(O)cc(O)c4c3=O)[C@H](O)[C@@H](O)[C@@H]2O)[C@H](O)[C@H](O)[C@H]1O; 96.8
COc1cc2c(cc1O[C@@H]1O[C@H](CO)[C@@H](O)[C@H](O)[C@H]1O)O[C@H](c1ccccc1)[C@@H](O)C2=O; 98.3
COc1cc2c(cc1O)O[C@H](c1ccccc1)[C@@H](O)C2=O [Compound 6, (2R,3R)-3,7-dihydroxy-6-methoxyflavanone]; 94.8
COc1cc([C@H]2OC[C@H]3[C@@H]2CO[C@@H]3c2cc(OC)c(O[C@@H]3O[C@H](CO)[C@@H](O)[C@H](O)[C@H]3O)c(OC)c2)cc(OC)c1O; 80
COc1ccc2c(c1)OC[C@H]1c3cc4c(cc3O[C@@H]21)OCO4; 60.3

Turning now to a further record.
# lookup: remaining activity at 10 µM of COc1cc(O)c2c(=O)c(-c3ccc(O)cc3)coc2c1
24.8

====

molecular target: AChE (Electrophorus electricus); construct: purchased Sigma-Aldrich; experiment: AChE inhibition (Ellman method); assay type: biochemical; conditions: read-out: Residual Activity at 10 µM (%) AChE
Sequence (O42275 24-633): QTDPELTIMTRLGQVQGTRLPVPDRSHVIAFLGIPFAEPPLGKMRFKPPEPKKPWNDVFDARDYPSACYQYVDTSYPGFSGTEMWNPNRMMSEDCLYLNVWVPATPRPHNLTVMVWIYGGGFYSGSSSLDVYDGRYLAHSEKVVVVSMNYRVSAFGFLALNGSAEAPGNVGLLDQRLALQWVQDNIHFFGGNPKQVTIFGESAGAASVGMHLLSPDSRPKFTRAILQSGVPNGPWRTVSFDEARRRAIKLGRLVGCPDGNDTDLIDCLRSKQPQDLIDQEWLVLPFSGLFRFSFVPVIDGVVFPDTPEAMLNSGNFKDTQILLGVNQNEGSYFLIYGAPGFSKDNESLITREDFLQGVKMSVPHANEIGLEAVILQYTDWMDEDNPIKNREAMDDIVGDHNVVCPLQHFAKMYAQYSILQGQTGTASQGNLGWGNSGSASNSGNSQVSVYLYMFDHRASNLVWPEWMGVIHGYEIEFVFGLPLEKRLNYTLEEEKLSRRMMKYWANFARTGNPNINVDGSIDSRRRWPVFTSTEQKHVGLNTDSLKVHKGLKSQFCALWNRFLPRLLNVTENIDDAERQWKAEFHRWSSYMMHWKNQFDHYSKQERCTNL
Recorded metric: remaining activity at 10 µM
Please state the number and follow it with the unit.

Study these solved cases before continuing.
COc1ccc2c(c1)OC1c3ccc(O)cc3OCC21 (stereo not drawn) [Compound 8, 3-hydroxy-9-methoxypterocarpan]; 80.6%
COc1cc(O)c2c(=O)c(-c3ccc(OC)c(O)c3)coc2c1 [Compound 10, 7,4′-dimethyl-3′-hydroxygenistein]; 78.4%
COc1ccc(-c2coc3cc(OC)ccc3c2=O)cc1; 82.7%

Entry under review: C[C@@H]1O[C@@H](OC[C@H]2O[C@@H](Oc3c(-c4ccc(O)c(O)c4)oc4cc(O)cc(O)c4c3=O)[C@H](O)[C@@H](O)[C@@H]2O)[C@H](O)[C@H](O)[C@H]1O . Reported remaining activity at 10 µM?
92.4%

Name the recorded remaining activity at 10 µM for COc1cc(O)c2c(=O)c(-c3ccc(O)cc3O)coc2c1 .
70.8%

Please report the recorded remaining activity at 10 µM for COc1cc2c(cc1O)O[C@H](c1ccccc1)[C@@H](O)C2=O [Compound 6, (2R,3R)-3,7-dihydroxy-6-methoxyflavanone] .
84.3%

====

target: BChE (Equus caballus); construct: BChE from equine serum; purchased Sigma-Aldrich; host or cells: equine serum; experiment: BChE inhibition (Ellman method); assay type: biochemical, equine; details: read-out: Residual Activity at 10 µM (%) BChE
Sequence (P81908 whole entry): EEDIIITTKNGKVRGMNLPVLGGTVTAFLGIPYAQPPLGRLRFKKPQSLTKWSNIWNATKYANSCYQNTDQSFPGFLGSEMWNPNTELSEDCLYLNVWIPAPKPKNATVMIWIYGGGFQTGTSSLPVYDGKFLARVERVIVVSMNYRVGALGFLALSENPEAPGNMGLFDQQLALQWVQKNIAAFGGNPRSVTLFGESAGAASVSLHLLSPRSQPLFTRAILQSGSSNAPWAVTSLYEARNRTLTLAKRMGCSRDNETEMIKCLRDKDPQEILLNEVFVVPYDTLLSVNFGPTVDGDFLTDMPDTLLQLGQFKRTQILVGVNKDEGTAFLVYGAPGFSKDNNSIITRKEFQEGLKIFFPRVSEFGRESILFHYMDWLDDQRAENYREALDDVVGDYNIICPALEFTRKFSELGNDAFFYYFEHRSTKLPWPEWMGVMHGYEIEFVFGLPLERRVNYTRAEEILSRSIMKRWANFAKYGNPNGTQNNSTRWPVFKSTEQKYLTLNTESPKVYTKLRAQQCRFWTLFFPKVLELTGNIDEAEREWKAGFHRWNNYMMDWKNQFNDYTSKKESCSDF
Recorded metric: remaining activity at 10 µM (%)
Report only the number, with the unit % understood.

Value wanted: remaining activity at 10 µM (BChE (Equus caballus)) of entry COc1cc2c(cc1O[C@@H]1O[C@H](CO)[C@@H](O)[C@H](O)[C@H]1O)O[C@H](c1ccccc1)[C@@H](O)C2=O
97.5

====

Listed compounds paired with reported remaining activity at 10 µM
target: BACE1 (Homo sapiens); construct: purchased Sigma-Aldrich; assay: BACE1 inhibition (fluorescent activity detection kit); type: biochemical; conditions: read-out: Residual Activity at 10 µM (%) BACE1
Give the value in % but do not write % after it.

// solved cases for remaining activity at 10 µM follow
COc1ccc(-c2coc3cc(OC)ccc3c2=O)cc1; 92
COc1cc2c(cc1O[C@@H]1O[C@H](CO)[C@@H](O)[C@H](O)[C@H]1O)O[C@H](c1ccccc1)[C@@H](O)C2=O; 164

Given the compound COc1ccc2c(c1)OC[C@H]1c3cc4c(cc3O[C@@H]21)OCO4 , what is its reported remaining activity at 10 µM?
102

====

molecular target: BACE1 (Homo sapiens, UniProt P56817); construct: purchased Sigma-Aldrich; assay: BACE1 inhibition (fluorescent activity detection kit); format: biochemical; details: read-out: Residual Activity at 10 µM (%) BACE1
Sequence (P56817 46-501): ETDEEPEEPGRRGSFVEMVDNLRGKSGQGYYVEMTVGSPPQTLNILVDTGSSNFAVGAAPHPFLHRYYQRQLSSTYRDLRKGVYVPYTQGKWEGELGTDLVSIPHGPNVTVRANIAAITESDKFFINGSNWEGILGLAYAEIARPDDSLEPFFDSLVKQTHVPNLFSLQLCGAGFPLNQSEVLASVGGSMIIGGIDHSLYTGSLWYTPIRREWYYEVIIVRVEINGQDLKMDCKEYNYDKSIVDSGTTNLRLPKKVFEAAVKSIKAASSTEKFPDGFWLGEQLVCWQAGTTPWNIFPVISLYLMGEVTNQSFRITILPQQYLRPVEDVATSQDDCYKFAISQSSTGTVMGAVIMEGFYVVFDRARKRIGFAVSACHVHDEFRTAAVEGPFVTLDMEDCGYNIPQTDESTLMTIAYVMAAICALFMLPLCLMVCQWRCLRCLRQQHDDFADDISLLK
Recorded metric: remaining activity at 10 µM (%)
Value expressed in %; do not type the unit.

COc1ccc2c(c1)O[C@H]1c3ccc(OC)cc3OC[C@@H]21; 101
COc1cc(O)c2c(=O)c(-c3ccc(OC)c(O)c3)coc2c1 [Compound 10, 7,4′-dimethyl-3′-hydroxygenistein]; 78.9
COc1cc2c(cc1O)O[C@H](c1ccccc1)[C@@H](O)C2=O [Compound 6, (2R,3R)-3,7-dihydroxy-6-methoxyflavanone]; 95.7

# context switch: different molecule, same remaining activity at 10 µM
Value lookup for remaining activity at 10 µM; key = COc1cc(O)c2c(=O)c(-c3ccc(O)cc3)coc2c1
87.7

====

target: hMAO-B (Homo sapiens, UniProt P27338); construct: purchased Sigma-Aldrich; experiment: biochemical; assay type: biochemical; settings: hMAO-B selectivity: IC50 of hMAO-A divided by IC50 of hMAO-B
Sequence (P27338 whole entry): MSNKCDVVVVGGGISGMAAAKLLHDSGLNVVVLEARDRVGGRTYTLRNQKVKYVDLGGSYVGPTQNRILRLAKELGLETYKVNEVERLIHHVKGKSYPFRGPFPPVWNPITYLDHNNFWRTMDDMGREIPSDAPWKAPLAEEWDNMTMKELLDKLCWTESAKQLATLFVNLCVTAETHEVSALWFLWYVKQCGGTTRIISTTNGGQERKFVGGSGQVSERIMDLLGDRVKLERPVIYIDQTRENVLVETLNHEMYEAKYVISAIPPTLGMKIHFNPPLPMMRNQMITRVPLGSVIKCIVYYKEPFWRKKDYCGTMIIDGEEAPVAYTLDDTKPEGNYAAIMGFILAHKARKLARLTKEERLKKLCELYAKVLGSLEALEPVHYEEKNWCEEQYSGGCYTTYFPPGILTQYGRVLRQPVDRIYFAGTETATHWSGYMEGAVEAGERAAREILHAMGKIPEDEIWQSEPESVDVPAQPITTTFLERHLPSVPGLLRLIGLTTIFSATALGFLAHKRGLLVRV
Reported SI values for a set of molecules
Answer with the value's number alone.

These recorded examples may help you get a feel for the data.
COc1ccc2c(c1)OC[C@H]1c3cc4c(cc3O[C@@H]21)OCO4; 3.72
COc1ccc2c(c1)O[C@H]1c3ccc(OC)cc3OC[C@@H]21; 2.07

Record COc1ccc(-c2coc3cc(OC)ccc3c2=O)cc1 : what is its SI with hMAO-B (Homo sapiens, UniProt P27338)?
0.72

// lookup SI | system=hMAO-B (Homo sapiens, UniProt P27338) | key= COc1ccc2c(c1)OC1c3ccc(O)cc3OCC21 (stereo not shown) [Compound 8, 3-hydroxy-9-methoxypterocarpan]
44.2

====

target: hMAO-B (Homo sapiens); construct: purchased Sigma-Aldrich; assay: biochemical; type: biochemical
Label key: rule met means IC50 under 5 µM; rule not met means IC50 of 5 µM or more.

COc1ccc2c(c1)OC1c3ccc(O)cc3OCC21 (stereo not shown) [Compound 8, 3-hydroxy-9-methoxypterocarpan]; rule met
COc1cc(O)c2c(=O)c(-c3ccc(OC)c(O)c3)coc2c1 [Compound 10, 7,4′-dimethyl-3′-hydroxygenistein]; rule met
COc1cc([C@H]2OC[C@H]3[C@@H]2CO[C@@H]3c2cc(OC)c(O[C@@H]3O[C@H](CO)[C@@H](O)[C@H](O)[C@H]3O)c(OC)c2)cc(OC)c1O; rule not met
COc1ccc(-c2coc3cc(OC)ccc3c2=O)cc1; rule not met
C[C@@H]1O[C@@H](OC[C@H]2O[C@@H](Oc3c(-c4ccc(O)c(O)c4)oc4cc(O)cc(O)c4c3=O)[C@H](O)[C@@H](O)[C@@H]2O)[C@H](O)[C@H](O)[C@H]1O; rule not met

Item COc1cc(O)c2c(=O)c(-c3ccc(O)cc3)coc2c1 : IC50 beneath 5 µM, strictly?
rule not met

IC50 strictly < 5 µM for this molecule? COc1ccc2c(c1)OC[C@H]1c3cc4c(cc3O[C@@H]21)OCO4
rule met

Does this molecule meet the criterion IC50 < 5 µM? COc1cc([C@H]2OC[C@H]3[C@@H]2CO[C@@H]3c2cc(OC)c(O)c(OC)c2)cc(OC)c1O [Compound 5, (+)-syringaresinol]
rule not met

Here's an entry: COc1cc2c(cc1O[C@@H]1O[C@H](CO)[C@@H](O)[C@H](O)[C@H]1O)O[C@H](c1ccccc1)[C@@H](O)C2=O . Is its IC50 below 5 µM?
rule not met
